The measurements presented in this section are drawn from patent US5409933A.

Tested on: Escherichia coli 1507E
run.description: In Vitro Anti-Bacterial Activity Test (MIC, agar dilution)
Assay type: cell-based
test.settings: Escherichia coli, 1507E, 18 h, Muller-Hinton agar, 37° C.
Where a name gives a salt, the structure may show the parent alone.
measured.endpoint: MIC (µg/mL)
Provide the reading as a plain figure in µg/mL.

1) CCn1cc(C(=O)C[N+](=O)[O-])c(=O)c2cc(F)c(N3CCC(N)C3)c(F)c21 (stereo not drawn) [Example 30, hydrochloride] ... 0.391
2) CCOC(=O)C(C(=O)OCC)C(=O)c1cn(C2CC2)c2c(F)c(N3CCC(N)C3)c(F)cc2c1=O (stereo not drawn) [Example 20, hydrochloride] ... 0.007
3) CCOC(=O)C(C(=O)OCC)C(=O)c1cn(C2CC2)c2c(OC)c(N3CC[C@@H](NC)C3)c(F)cc2c1=O [Example 58, hydrochloride] ... 0.391

Inquiry: What does the data say about its MIC? Entry: CC(=O)C(C(C)=O)C(=O)c1cn(C2CC2)c2c(Cl)c(N3CCC(N)C3)c(F)cc2c1=O (stereo not drawn) [Example 48, hydrochloride]
Reply text: 0.195

Inquiry: What does the data say about its MIC? Entry: CCOC(=O)C(C(=O)OCC)C(=O)c1cn(C2CC2)c2c(OC)c(N3CCC(NC)C3)c(F)cc2c1=O (stereo not drawn) [Example 60, hydrochloride]
Reply text: 0.195

Inquiry: What does the data say about its MIC? Entry: NC1CCN(c2cc3c(cc2F)c(=O)c(C(=O)C[N+](=O)[O-])cn3-c2ccc(F)cc2F)C1 (stereo not drawn) [Example 9, hydrochloride]
Reply text: 0.013
